- test system: purified PfENR (Plasmodium falciparum)
- Sequence (Q9BH77 22-432): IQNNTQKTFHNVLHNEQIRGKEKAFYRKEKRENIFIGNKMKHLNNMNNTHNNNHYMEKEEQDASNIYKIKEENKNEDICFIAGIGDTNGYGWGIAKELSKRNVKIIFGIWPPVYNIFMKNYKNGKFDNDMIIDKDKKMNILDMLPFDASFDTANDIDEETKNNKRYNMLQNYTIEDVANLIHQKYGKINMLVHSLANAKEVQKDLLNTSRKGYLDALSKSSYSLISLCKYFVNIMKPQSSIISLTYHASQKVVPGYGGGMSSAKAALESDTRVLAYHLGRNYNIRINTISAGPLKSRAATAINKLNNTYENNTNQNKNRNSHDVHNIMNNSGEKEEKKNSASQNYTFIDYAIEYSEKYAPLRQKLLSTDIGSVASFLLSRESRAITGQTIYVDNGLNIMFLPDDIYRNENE
- assay name: PfENR inhibition kinetics, cofactor potency and progress curve analysis
- Type: biochemical
- assay setup: purified PfENR; read-out: Dissociation constant (Ki)
observable: Ki

Q) Test system purified PfENR (Plasmodium falciparum); read-out Ki; what value for O=C(NCc1ccc(F)cc1)c1sc2ccccc2c1Br [Compound 6] ?
A) 48.9 nM

###

- Test system: blood-stage P. berghei ANKA
- assay name: Experimental cerebral malaria in C57BL/6 mice
- Format: in vivo
- assay setup: Per oral, 5 mg/kg body weight daily for six days, C57BL/6 mice
Mean Survival Days (Observed for 25 days) values, listed per item
Give the value in days but do not write days after it.

Answered examples (2):
| molecule | unit descriptor | reported measurement |
| --- | --- | --- |
| C=CCN(Cc1ccc(F)cc1)C(=O)c1sc2ccccc2c1Br [Compound 10] | days | 7 |
| O=C(NCc1ccc(F)cc1)c1sc2ccccc2c1Br [Compound 6] | days | 12 |

Q) Requested read-out: Mean Survival Days (Observed for 25 days). Entry: O=C(NCc1ccc(C(F)(F)F)cc1)c1sc2ccccc2c1Br [Compound 7]
A) 11

Q) Requested read-out: Mean Survival Days (Observed for 25 days). Entry: CCN(CC)CCCC(C)Nc1ccnc2cc(Cl)ccc12 (centres unmarked) [Chloroquine, reference compound]
A) 17
